- studyTarget: T1, CD3 epsilon homodimer protein (UniProt P07766 23-126)
- T1 construct: also called CD3 (CD3 epsilon)
- T1 sequence (P07766 23-126): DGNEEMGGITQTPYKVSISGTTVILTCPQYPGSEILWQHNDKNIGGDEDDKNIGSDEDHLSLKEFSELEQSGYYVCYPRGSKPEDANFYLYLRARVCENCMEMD
- protocolDetails: SPR, antibody over immobilised CD3e homodimer;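 further: SPR at 25 °C with CD3 epsilon homodimer amine-coupled to a CM4 sensor chip and antibody flowed over as analyte in HBS-EP+ running buffer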
quantity: KD ratio to GLS3000

CE115HA000/GLS3000 L27bY (antibody, IgG1, name in Kabat numbering, V domains shown, one-arm IgG1) VH: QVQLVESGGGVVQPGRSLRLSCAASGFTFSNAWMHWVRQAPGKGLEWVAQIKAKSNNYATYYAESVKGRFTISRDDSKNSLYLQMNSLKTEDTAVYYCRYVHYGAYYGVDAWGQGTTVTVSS VL: DIVMTQSPLSLPVTPGEPASISCRSSQSYVHSNRNTYLHWYQQKPGQAPRLLIYKVSNRFSGVPDRFSGSGSGTDFTLKISRVEAEDVGVYYCGQGTQVPYTFGQGTKLEIK
22.2

With those in mind, consider the next binder.
Query: I have this binder here, CE115HA000/GLS3000 S27eT (antibody, IgG1, name in Kabat numbering, V domains shown, one-arm IgG1) VH: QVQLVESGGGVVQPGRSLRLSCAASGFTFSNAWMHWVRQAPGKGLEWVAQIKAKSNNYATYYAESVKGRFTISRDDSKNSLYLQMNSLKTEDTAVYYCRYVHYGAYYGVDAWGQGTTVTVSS VL: DIVMTQSPLSLPVTPGEPASISCRSSQSLVHTNRNTYLHWYQQKPGQAPRLLIYKVSNRFSGVPDRFSGSGSGTDFTLKISRVEAEDVGVYYCGQGTQVPYTFGQGTKLEIK , and I need its recorded KD ratio to GLS3000.
Response: 0.98
